Experiment: Complete pharmacokinetic analysis after a single oral dose
Settings: Balb/C, mouse, plasma, po, 10 mg/kg of INH (prodrugs at molar equivalent)
measuredAttribute: concentration at 24 h (ng/mL)
Respond with the bare value in ng/mL.

Recorded concentration at 24 h, per entry:
| molecule | u | quantitativeReadout |
| --- | --- | --- |
| CC(C)OC(=O)NNC(=O)c1ccncc1.Cl [prodrug 1d] | ng/mL | 152 |
| Cl.O=C(NNC(=O)c1ccncc1)OCc1ccccc1 [prodrug 1h] | ng/mL | 120 |

Next item in the queue.
Short answer for COC(=O)NNC(=O)c1ccncc1.Cl [prodrug 1a] : concentration at 24 h was 208

====

Assay: Complete pharmacokinetic analysis after a single oral dose
Settings: Balb/C, mouse, plasma, po, 10 mg/kg of INH (prodrugs at molar equivalent)
Quick reference: concentration at 6 h of the listed items.
Please format your answer as a value with the unit trailing.

Recorded concentration at 6 h, per entry:
| molecule | result |
| --- | --- |
| Cl.O=C(NNC(=O)c1ccncc1)OCc1ccccc1 [prodrug 1h] | 128 ng/mL |
| CC(C)OC(=O)NNC(=O)c1ccncc1.Cl [prodrug 1d] | 347 ng/mL |

Next item in the queue.
Short answer for COC(=O)NNC(=O)c1ccncc1.Cl [prodrug 1a] : concentration at 6 h was 571 ng/mL

====

Test: Complete pharmacokinetic analysis after a single oral dose
Settings: Balb/C, mouse, plasma, po, 10 mg/kg of INH (prodrugs at molar equivalent)
Quick reference: concentration at 1 h of the listed items.
Respond with the bare value in ng/mL.

| compound | concentration at 1 h, ng/mL |
| --- | --- |
| COC(=O)NNC(=O)c1ccncc1.Cl [prodrug 1a] | 63200 |
| Cl.O=C(NNC(=O)c1ccncc1)OCc1ccccc1 [prodrug 1h] | 433 |

Next item in the queue.
Short answer for CC(C)OC(=O)NNC(=O)c1ccncc1.Cl [prodrug 1d] : concentration at 1 h was 10400

====

Assay: Comparative plasma exposure after a single oral dose at three incremental dose levels
Details: Balb/C, mouse, plasma, po, 1 mg/kg
measuredAttribute: concentration at 6 h (ng/mL)
Respond with the bare value in ng/mL.

Short answer for CC(C)OC(=O)NNC(=O)c1ccncc1.Cl [prodrug 1d] : concentration at 6 h was 146

====

Assay: Comparative plasma exposure after a single oral dose at three incremental dose levels
Conditions: Balb/C, mouse, plasma, po, 3 mg/kg
measuredAttribute: concentration at 2 h
Please format your answer as a value with the unit trailing.

Short answer for CC(C)OC(=O)NNC(=O)c1ccncc1.Cl [prodrug 1d] : concentration at 2 h was 0.578 µg/mL

====

Test: Aqueous solubility in Tris HCl buffer (pH 7.4), shake flask method
Details: Tris HCl buffer, 37 °C, pH 7.4, aqueous buffer, thermodynamic from solid
measuredAttribute: solubility at 24 h (mg/mL)
Respond with the bare value in mg/mL.

| compound | u | quantitativeReadout |
| --- | --- | --- |
| CCOC(=O)NNC(=O)c1ccncc1.Cl [prodrug 1b] | mg/mL | 326 |

Short answer for CC(C)COC(=O)NNC(=O)c1ccncc1.Cl [prodrug 1f] : solubility at 24 h was 29.3

Short answer for COC(=O)NNC(=O)c1ccncc1.Cl [prodrug 1a] : solubility at 24 h was 213

====

Quick reference: logD of the listed items.
Experiment: Lipophilicity (logD) by shake flask method

Recorded logD, per entry:
| compound | logD |
| --- | --- |
| CCC(C)OC(=O)NNC(=O)c1ccncc1.Cl (centres unmarked) [prodrug 1i] | 0.8 |
| CCCCOC(=O)NNC(=O)c1ccncc1.Cl [prodrug 1e] | 0.8 |
| C=CCOC(=O)NNC(=O)c1ccncc1.Cl [prodrug 1g] | 0.2 |

Short answer for NNC(=O)c1ccncc1 [INH, Isoniazid, reference compound] : logD was -0.8

Short answer for CCOC(=O)NNC(=O)c1ccncc1.Cl [prodrug 1b] : logD was -0.01

Short answer for CCCOC(=O)NNC(=O)c1ccncc1.Cl [prodrug 1c] : logD was 0.2

Short answer for Cl.O=C(NNC(=O)c1ccncc1)OCc1ccccc1 [prodrug 1h] : logD was 1.1

Short answer for COC(=O)NNC(=O)c1ccncc1.Cl [prodrug 1a] : logD was -0.2

Short answer for CC(C)OC(=O)NNC(=O)c1ccncc1.Cl [prodrug 1d] : logD was 0.2

Short answer for CC(C)COC(=O)NNC(=O)c1ccncc1.Cl [prodrug 1f] : logD was 0.9

Short answer for Cl.O=C(NNC(=O)c1ccncc1)Oc1ccccc1 [prodrug 1j] : logD was 0.9
